# key: entry, value: Euclidean distance
System: HEPG2
ASSAY METHOD TEXT: Euclidean distance of Cell Painting phenotypic profile (signed KS, 77 features) to DMSO centroid (dimensionless distance); 5 or 10 uM (library dependent); higher = stronger phenotypic change vs DMSO (phenoactivity)
ASSAY SETUP: 48 h
Structures can show the parent of a compound that is named as a salt.
VALUE TYPE: Euclidean distance

# COMPOUND, OBSERVED RESULT
records = [
    ("C[C@H](NC(=O)CCC(F)(F)F)C(=O)N[C@@H]1C(=O)N(CCO)c2ncccc2-c2ccccc21", 0.66),
    ("Cc1noc(NS(=O)(=O)c2ccc(N)cc2)c1C [Sulfisoxazole]", 0.555),
    ("Cc1cc2c(F)c(Oc3ncnn4cc(OC[C@@H](C)OC(=O)[C@H](C)N)c(C)c34)ccc2[nH]1", 0.818),
    ("O=C(Nc1cc(C(F)(F)F)cc(C(F)(F)F)c1)c1cc(Cl)ccc1O", 0.971),
    ("COc1cc2c(cc1OC)[C@@H]1Cc3ccc(OC)c(OC)c3CN1CC2 [Rotundine]", 0.595),
    ("CN[C@H](CC(C)C)C(=O)N[C@H]1C(=O)N[C@@H](CC(N)=O)C(=O)N[C@H]2C(=O)N[C@H]3C(=O)N[C@H](C(=O)N[C@H](C(=O)O)c4cc(O)cc(O)c4-c4cc3ccc4O)[C@H](O)c3ccc(c(Cl)c3)Oc3cc2cc(c3O[C@@H]2O[C@H](CO)[C@@H](O)[C@H](O)[C@H]2O[C@H]2C[C@](C)(N)[C@H](O)[C@H](C)O2)Oc2ccc(cc2Cl)[C@H]1O [Vancomycin HCl]", 0.611),
]
